assay: The drug is tested on Clostridium scindens strain: ATCC35704 for biotransformation. The drug concentrations were measured before and after a 12-h incubation by liquid-chromatography-coupled mass spectrometry (LC–MS); conditions: 2 µM
observable: Bacterial Biotransformation

Answered examples (9):
CN1C(=O)CCS(=O)(=O)C1c1ccc(Cl)cc1 (stereo not given) [CHLORMEZANONE]
Compound NOT metabolized
CC(C)(Oc1ccc(CCNC(=O)c2ccc(Cl)cc2)cc1)C(=O)O [BEZAFIBRATE]
Compound metabolized
CCCCC1=NC2(CCCC2)C(=O)N1Cc1ccc(-c2ccccc2-c2nnn[nH]2)cc1 [IRBESARTAN]
Compound metabolized
CN(C)CC(c1ccc(O)cc1)C1(O)CCCCC1.O=C(O)CCC(=O)O (stereo not given) [DESVENLAFAXINE SUCCINATE]
Compound NOT metabolized
CCOc1ccc(NC(C)=O)cc1 [PHENACETIN]
Compound NOT metabolized
O=C(O)CCC(=O)O.O=C(O[C@H]1CN2CCC1CC2)N1CCc2ccccc2[C@@H]1c1ccccc1 [SOLIFENACIN SUCCINATE]
Compound NOT metabolized
CC(C)NCC(O)c1ccc(NS(C)(=O)=O)cc1 (stereo not given) [SOTALOL]
Compound NOT metabolized
C[C@]12CCC(=O)C=C1[C@@H]1C[C@@H]1[C@H]1[C@@H]3[C@@H]4C[C@@H]4[C@@]4(CCC(=O)O4)[C@@]3(C)CC[C@@H]12 [DROSPIRENONE]
Compound NOT metabolized
O=C(NCc1ccccc1)OCCO [BURAMATE]
Compound NOT metabolized

Please look at the following molecule next.
# input May I ask what Bacterial Biotransformation has been recorded for COc1ccc(CN2CCNCC2)c(OC)c1OC.Cl.Cl [TRIMETAZIDINE DIHYDROCHLORIDE] ?
# output Compound NOT metabolized
